Sourced from ChEMBL document CHEMBL4689842

tested on: U2OS; assay: Multiplex assay against U2OS; type: toxicity, cell-based; details: human, 24 h, 1 µM, compound concentration 1 uM, replicate 1
Overview of reported Population Tubulin-Different-Phenotype (%) across a group of molecules:
Return type: number; implicit unit %.

C=CCn1c(=O)c2cnc(Nc3ccc(N4CCN(C)CC4)cc3)nc2n1-c1cccc(C(C)(C)O)n1 [ADAVOSERTIB]
38
Cc1cn(-c2cc(NC(=O)c3ccc(C)c(Nc4nccc(-c5cccnc5)n4)c3)cc(C(F)(F)F)c2)cn1 [NILOTINIB]
92

Prompt line: Quick one: Population Tubulin-Different-Phenotype (%) of CCCS(=O)(=O)Nc1ccc(F)c(C(=O)c2c[nH]c3ncc(Cl)cc23)c1F [PLX-4720] ?
Response line: 22

Prompt line: So what's the measured Population Tubulin-Different-Phenotype (%) for this one? O=C(Nc1cccnn1)N1CCC(=Cc2cccc(Oc3ccc(C(F)(F)F)cn3)c2)CC1
Response line: 17

Prompt line: Item under review: CCn1cc(-c2ccnc3[nH]c(-c4cccc(CN(C)C)c4)cc23)c(-c2ccc(NC(=O)N(C)C)cc2)n1 [GSK-1070916] . Reported Population Tubulin-Different-Phenotype (%)?
Response line: 15

Prompt line: What Population Tubulin-Different-Phenotype (%) value was documented for this molecule, Cc1ccc(C(=O)Nc2cccc(C(F)(F)F)c2)cc1Nc1nc(-c2cccnc2)nc2c1cnn2C ?
Response line: 8

Prompt line: Could you tell me which Population Tubulin-Different-Phenotype (%) is on file for C=C1/C(=C\C=C2/CCC[C@]3(C)[C@@H]([C@H](C)/C=C/[C@H](C)C(C)C)CC[C@@H]23)C[C@@H](O)C[C@@H]1O [DOXERCALCIFEROL] ?
Response line: 9

###

As shown below, each of these compounds has a reported Population Mitotic Cells (%) value.
system: Fibroblast; assay: Multiplex assay against human fibroblast; format: toxicity, cell-based; conditions: 24 h, 1 µM, compound concentration 1 uM, replicate 1
Answer with the value and then the unit.

Some entries whose results are on file:
O=C(Nc1cccnn1)N1CCC(=Cc2cccc(Oc3ccc(C(F)(F)F)cn3)c2)CC1
27%
Cl.O=c1c2cccn2c2ccccc2n1CCCN1CCC(c2ccc(Cl)cc2)CC1
51%
CCOc1cc(C(=O)N2CCC(N3CCN(C)CC3)CC2)ccc1Nc1ncc2c(n1)N(C1CCCC1)c1ccccc1C(=O)N2C
37%

Could you now consider this next compound?
Prompt line: Write down the reported Population Mitotic Cells (%) of CCN1CCN(Cc2ccc(Nc3ncc(F)c(-c4cc(F)c5nc(C)n(C(C)C)c5c4)n3)nc2)CC1.CS(=O)(=O)O , test system: Fibroblast.
Response line: 55%

###

Here the recorded Population Fragmented Nuclei (%) is given for each entry.
system: U2OS; experiment: Multiplex assay against U2OS; assay type: toxicity, cell-based; conditions: human, 12 h, 1 µM, compound concentration 1 uM, replicate 1
Express the result in % but write the number alone.

For orientation, consider the following solved cases.
CCn1cc(-c2ccnc3[nH]c(-c4cccc(CN(C)C)c4)cc23)c(-c2ccc(NC(=O)N(C)C)cc2)n1 [GSK-1070916]
4
CCN1CCN(c2ccc(Nc3cc(N(C)C(=O)Nc4c(Cl)c(OC)cc(OC)c4Cl)ncn3)cc2)CC1 [INFIGRATINIB]
15
CN1CCC(=C2c3ccccc3CC(=O)c3sccc32)CC1.O=C(O)/C=C/C(=O)O [KETOTIFEN FUMARATE]
10
Cc1cn(-c2cc(NC(=O)c3ccc(C)c(Nc4nccc(-c5cccnc5)n4)c3)cc(C(F)(F)F)c2)cn1 [NILOTINIB]
14
CCCS(=O)(=O)c1nc(NC2CC2)cc(-c2ccc3c(ccn3C3CC(C)(C)NC(C)(C)C3)c2)n1
16

Prompt line: Requested read-out: Population Fragmented Nuclei (%). Entry: CCc1cccc(CC)c1NC(=O)c1nn(C)c2c1CCc1cnc(Nc3ccc(C(=O)NC4CCN(C)CC4)cc3OC(F)(F)F)nc1-2
Response line: 18

Prompt line: # Population Fragmented Nuclei (%) lookup, item O=C1N/C(=N/c2ccccc2F)S/C1=C\c1ccc(C(=O)O)cc1
Response line: 8

Prompt line: Value lookup for Population Fragmented Nuclei (%); key = C=CCn1c(=O)c2cnc(Nc3ccc(N4CCN(C)CC4)cc3)nc2n1-c1cccc(C(C)(C)O)n1 [ADAVOSERTIB]
Response line: 11
